# details: Liquid; Visual observation in an unstirred cell
Please provide measured Critical temperature for the entries that follow.
Quick reminder: number only, in K, skip the unit.

Problem: What measured Critical temperature goes with "CCCCCCCC" ?
Result: 568.9

Problem: Follow-up entry: "CCCCCCC"
Result: 540.1

Problem: Follow-up entry: "CCCCCC"
Result: 507.8

Problem: Follow-up entry: "CCCCCCCCC"
Result: 594.5

Problem: Follow-up entry: "CCCCO"
Result: 563

Problem: Follow-up entry: "CCCCCCCCCC"
Result: 617.7

###

Please provide measured Critical pressure for the entries that follow.
# details: Liquid; Direct measurement
Quick reminder: number only, in kPa, skip the unit.

Problem: What measured Critical pressure goes with "CCCCCCCCCC" ?
Result: 2106

Problem: Follow-up entry: "CCCCCCCCC"
Result: 2278

Problem: Follow-up entry: "CCCCO"
Result: 4406

Problem: Follow-up entry: "CCCCCC"
Result: 3033

Problem: Follow-up entry: "CCCCCCC"
Result: 2736

Problem: Follow-up entry: "CCCCCCCC"
Result: 2496
